Property: EC50; scope: individual binders
- assayed.target: T1, noggin Fc fusion (R&D Systems) (UniProt Q13253 28-232, limits assumed)
- T1 construct: Bought noggin/Fc fusion; not shown: Fc part of the bought fusion
- T1 sequence (looked up): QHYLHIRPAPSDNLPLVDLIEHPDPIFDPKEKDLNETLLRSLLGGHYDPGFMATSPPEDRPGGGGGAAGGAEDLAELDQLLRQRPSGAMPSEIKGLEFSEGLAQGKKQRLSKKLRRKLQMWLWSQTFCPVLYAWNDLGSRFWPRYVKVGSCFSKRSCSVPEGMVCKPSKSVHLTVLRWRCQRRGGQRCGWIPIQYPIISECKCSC
- experiment.notes: AlphaScreen competition against biotinylated Y65N/S120D BMP-7
Please give a number only; it is taken to be in mg/L.

BMP-7 variant 504 (Y65N/S120D) (ligand, Expressed from the full-length Image clone and processed to the mature dimer; Purified from conditioned media on SP-sepharose; also called v504) STGGKQRSQNRSKTPKNQEALRMASVAENSSSDQRQACKKHELYVSFRDLGWQDWIIAPEGYAANYCEGECAFPLNSYMNATNHAIVQTLVHFINPETVPKPCCAPTQLNAISVLYFDDDSNVILKKYRNMVVRACGCH; 3.4
BMP-7 variant 565 (Y65N/F93T/R129D) (ligand, Expressed from the full-length Image clone and processed to the mature dimer; Purified from conditioned media on SP-sepharose; also called v565) STGGKQRSQNRSKTPKNQEALRMASVAENSSSDQRQACKKHELYVSFRDLGWQDWIIAPEGYAANYCEGECAFPLNSYMNATNHAIVQTLVHTINPETVPKPCCAPTQLNAISVLYFDDSSNVILKKYDNMVVRACGCH; 0.392
BMP-7 variant 526 (K39S/S120D/R134E) (ligand, Expressed from the full-length Image clone and processed to the mature dimer; Purified from conditioned media on SP-sepharose; also called v526) STGGKQRSQNRSKTPKNQEALRMASVAENSSSDQRQACSKHELYVSFRDLGWQDWIIAPEGYAAYYCEGECAFPLNSYMNATNHAIVQTLVHFINPETVPKPCCAPTQLNAISVLYFDDDSNVILKKYRNMVVEACGCH; 16.7

Okay, next one:
Ask | Which measured EC50 value corresponds to wild type human BMP-7 (R&D Systems) (ligand, Bought recombinant protein; It describes BMPs as dimers; also called wt; recombinant human BMP-7) STGGKQRSQNRSKTPKNQEALRMASVAENSSSDQRQACKKHELYVSFRDLGWQDWIIAPEGYAAYYCEGECAFPLNSYMNATNHAIVQTLVHFINPETVPKPCCAPTQLNAISVLYFDDSSNVILKKYRNMVVRACGCH ?
Reply | 2.85

Where do the numbers come from? From patent US20060058231A1.
